Recorded viability, T/C values for a group of molecules are listed next.
- Test system: 935938-334-R-J1-PDC spheroids with HUVEC/MSC, viability
- assay.protocol: Anticancer human tumor 935938-334-R-J1-PDC patient-derived small intestine adenocarcinoma cell line growth inhibition [PI3K]
- reported.conditions: second compound 0.1 µM; first compound 0.001 µM; stronger effect = lower value
- Excerpt: Combinatorial screen of targeted agents with the PI3K inhibitors inavolisib, alpelisib, duvelisib, and copanlisib in multi-cell type tumor spheroids A high-throughput screen of multi-cell type tumor spheroids was designed to identify active combinations of targeted small molecules and PI3K pathway inhibitors. […] Compounds. […] If the clinical Cmax for an agent had not been determined, the highest concentration tested was 10 microM. […]
# number only, unit % dropped from output

Study these solved cases before continuing.
molecule	endpoint.result
CC(=O)c1c(C)c2cnc(Nc3ccc(N4CCNCC4)cn3)nc2n(C2CCCC2)c1=O + COc1c(OCCCN2CCOCC2)ccc2c3n(c(=NC(=O)c4cnc(N)nc4)nc12)CCN3	48.6
Cn1ncnc1[C@H]1c2n[nH]c(=O)c3cc(F)cc(c23)N[C@@H]1c1ccc(F)cc1 + CC(Nc1ccc2c(c1)OCCn1cc(N3C(=O)OCC3C(F)F)nc1-2)C(N)=O	102
CC(C)n1nc(-c2ccc3oc(N)nc3c2)c2c(N)ncnc21 + CC(Nc1ccc2c(c1)OCCn1cc(N3C(=O)OCC3C(F)F)nc1-2)C(N)=O	96.3
CC(=O)c1c(C)c2cnc(Nc3ccc(N4CCNCC4)cn3)nc2n(C2CCCC2)c1=O + CC(Nc1ccc2c(c1)OCCn1cc(N3C(=O)OCC3C(F)F)nc1-2)C(N)=O	81.7

INPUT: Data request, read-out viability, T/C, for Cn1ncnc1[C@H]1c2n[nH]c(=O)c3cc(F)cc(c23)N[C@@H]1c1ccc(F)cc1 + COc1c(OCCCN2CCOCC2)ccc2c3n(c(=NC(=O)c4cnc(N)nc4)nc12)CCN3
OUTPUT: 52

INPUT: Data request, read-out viability, T/C, for CC(C)n1nc(-c2ccc3oc(N)nc3c2)c2c(N)ncnc21 + Cc1nc(NC(=O)N2CCCC2C(N)=O)sc1-c1ccnc(C(C)(C)C(F)(F)F)c1
OUTPUT: 82.1

INPUT: Data request, read-out viability, T/C, for CC(=O)c1c(C)c2cnc(Nc3ccc(N4CCNCC4)cn3)nc2n(C2CCCC2)c1=O + Cc1nc(NC(=O)N2CCCC2C(N)=O)sc1-c1ccnc(C(C)(C)C(F)(F)F)c1
OUTPUT: 96.5

INPUT: Data request, read-out viability, T/C, for Cn1ncnc1[C@H]1c2n[nH]c(=O)c3cc(F)cc(c23)N[C@@H]1c1ccc(F)cc1 + CC(Nc1ncnc2nc[nH]c12)c1cc2cccc(Cl)c2c(=O)n1-c1ccccc1
OUTPUT: 84.5

INPUT: Data request, read-out viability, T/C, for Cn1ncnc1[C@H]1c2n[nH]c(=O)c3cc(F)cc(c23)N[C@@H]1c1ccc(F)cc1 + Cc1nc(NC(=O)N2CCCC2C(N)=O)sc1-c1ccnc(C(C)(C)C(F)(F)F)c1
OUTPUT: 98.7

INPUT: Data request, read-out viability, T/C, for CC(=O)c1c(C)c2cnc(Nc3ccc(N4CCNCC4)cn3)nc2n(C2CCCC2)c1=O + CC(Nc1ncnc2nc[nH]c12)c1cc2cccc(Cl)c2c(=O)n1-c1ccccc1
OUTPUT: 103

INPUT: Data request, read-out viability, T/C, for CC(C)n1nc(-c2ccc3oc(N)nc3c2)c2c(N)ncnc21 + CC(Nc1ncnc2nc[nH]c12)c1cc2cccc(Cl)c2c(=O)n1-c1ccccc1
OUTPUT: 85.9

INPUT: Data request, read-out viability, T/C, for CC(C)n1nc(-c2ccc3oc(N)nc3c2)c2c(N)ncnc21 + COc1c(OCCCN2CCOCC2)ccc2c3n(c(=NC(=O)c4cnc(N)nc4)nc12)CCN3
OUTPUT: 59.4

* * *

- Test system: 935938-334-R-J1-PDC spheroids with HUVEC/MSC, viability
- assay.protocol: Anticancer human tumor 935938-334-R-J1-PDC cell line growth inhibition [PI3K];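 further: compound exposure lasted seven days before viability was read; percent of vehicle DMSO treated spheroid viability so 100% = untreated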
- reported.conditions: second compound 3.16 µM; first compound 3.16 µM; stronger effect = lower value
Please assign Not met whenever viability, T/C is at or above 60%, and Met whenever it is below.

# count of solved cases: 7
molecule	label.class
CCCS(=O)(=O)Nc1ccc(F)c(C(=O)c2c[nH]c3ncc(-c4ccc(Cl)cc4)cc23)c1F + Cc1nc(NC(=O)N2CCCC2C(N)=O)sc1-c1ccnc(C(C)(C)C(F)(F)F)c1	Not met
Cn1nccc1Nc1nccc(-c2ccn(C(CO)c3ccc(Cl)c(F)c3)c(=O)c2)n1 (stereo not given) + CC(Nc1ncnc2nc[nH]c12)c1cc2cccc(Cl)c2c(=O)n1-c1ccccc1	Met
CNC(=O)c1ccc(N2C(=S)N(c3ccc(C#N)c(C(F)(F)F)c3)C(=O)C2(C)C)cc1F + Cc1nc(NC(=O)N2CCCC2C(N)=O)sc1-c1ccnc(C(C)(C)C(F)(F)F)c1	Met
C#Cc1c(F)ccc2cc(O)cc(-c3ncc4c(N5CC6CCC(C5)N6)nc(OCC56CCCN5CC(F)C6)nc4c3F)c12 (stereo not given) + CC(Nc1ncnc2nc[nH]c12)c1cc2cccc(Cl)c2c(=O)n1-c1ccccc1	Met
CC1(C)CCC(Nc2ncc(C(F)(F)F)c(-c3c[nH]c4c(P(C)(C)=O)c(C#N)ccc34)n2)CN1 (stereo not given) + Cc1nc(NC(=O)N2CCCC2C(N)=O)sc1-c1ccnc(C(C)(C)C(F)(F)F)c1	Met
C=CC(=O)N1CCN(c2nc(=O)n(-c3c(C)ccnc3C(C)C)c3nc(-c4c(O)cccc4F)c(F)cc23)C(C)C1 (stereo not given) + CC(Nc1ncnc2nc[nH]c12)c1cc2cccc(Cl)c2c(=O)n1-c1ccccc1	Not met
CC(Cn1ccc(-c2ccc(C#N)c(Cl)c2)n1)NC(=O)c1cc(C(C)O)[nH]n1 (stereo not given) + CC(Nc1ncnc2nc[nH]c12)c1cc2cccc(Cl)c2c(=O)n1-c1ccccc1	Not met

INPUT: Confirm or reject: viability, T/C of CC1(C)CCC(CN2CCN(c3ccc(C(=O)NS(=O)(=O)c4ccc(NCC5CCOCC5)c([N+](=O)[O-])c4)c(Oc4cnc5[nH]ccc5c4)c3)CC2)=C(c2ccc(Cl)cc2)C1 + CC(Nc1ncnc2nc[nH]c12)c1cc2cccc(Cl)c2c(=O)n1-c1ccccc1 lies strictly below 60%
OUTPUT: Not met

* * *

- Test system: 935938-334-R-J1-PDC spheroids with HUVEC/MSC, viability
- assay.protocol: Anticancer human tumor 935938-334-R-J1-PDC cell line growth inhibition [PI3K];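 further: compound exposure lasted seven days before viability was read; percent of vehicle DMSO treated spheroid viability so 100% = untreated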
- reported.conditions: second compound 0.316 µM; first compound 1 µM; stronger effect = lower value
value.kind: viability, T/C (%)
# number only, unit % dropped from output

molecule	viability, T/C / %
C#Cc1c(F)ccc2cc(O)cc(-c3ncc4c(N5CC6CCC(C5)N6)nc(OCC56CCCN5CC(F)C6)nc4c3F)c12 (stereo not given) + CC(Nc1ncnc2nc[nH]c12)c1cc2cccc(Cl)c2c(=O)n1-c1ccccc1	74.1
CC1(C)CCC(CN2CCN(c3ccc(C(=O)NS(=O)(=O)c4ccc(NCC5CCOCC5)c([N+](=O)[O-])c4)c(Oc4cnc5[nH]ccc5c4)c3)CC2)=C(c2ccc(Cl)cc2)C1 + CC(Nc1ncnc2nc[nH]c12)c1cc2cccc(Cl)c2c(=O)n1-c1ccccc1	93.8

INPUT: Data request, read-out viability, T/C, for CCN1CCN(Cc2ccc(Nc3ncc(F)c(-c4cc(F)c5nc(C)n(C(C)C)c5c4)n3)nc2)CC1 + COc1c(OCCCN2CCOCC2)ccc2c3n(c(=NC(=O)c4cnc(N)nc4)nc12)CCN3
OUTPUT: 30.8

INPUT: Data request, read-out viability, T/C, for CCN1CCN(Cc2ccc(Nc3ncc(F)c(-c4cc(F)c5nc(C)n(C(C)C)c5c4)n3)nc2)CC1 + CC(Nc1ncnc2nc[nH]c12)c1cc2cccc(Cl)c2c(=O)n1-c1ccccc1
OUTPUT: 35.2

INPUT: Data request, read-out viability, T/C, for Cn1ncc(Cl)c1-c1cc(C(=O)NC(CN)Cc2cccc(F)c2)sc1Cl (stereo not given) + CC(Nc1ccc2c(c1)OCCn1cc(N3C(=O)OCC3C(F)F)nc1-2)C(N)=O
OUTPUT: 41

INPUT: Data request, read-out viability, T/C, for CC(C)NCC(C(=O)N1CCN(c2ncnc3c2C(C)CC3O)CC1)c1ccc(Cl)cc1 (stereo not given) + COc1c(OCCCN2CCOCC2)ccc2c3n(c(=NC(=O)c4cnc(N)nc4)nc12)CCN3
OUTPUT: 33.7

INPUT: Data request, read-out viability, T/C, for CNC(=O)c1ccc(N2C(=S)N(c3ccc(C#N)c(C(F)(F)F)c3)C(=O)C2(C)C)cc1F + Cc1nc(NC(=O)N2CCCC2C(N)=O)sc1-c1ccnc(C(C)(C)C(F)(F)F)c1
OUTPUT: 69.6

INPUT: Data request, read-out viability, T/C, for C#Cc1c(F)ccc2cc(O)cc(-c3ncc4c(N5CC6CCC(C5)N6)nc(OCC56CCCN5CC(F)C6)nc4c3F)c12 (stereo not given) + COc1c(OCCCN2CCOCC2)ccc2c3n(c(=NC(=O)c4cnc(N)nc4)nc12)CCN3
OUTPUT: 25.1

INPUT: Data request, read-out viability, T/C, for CCN1CCN(Cc2ccc(Nc3ncc(F)c(-c4cc(F)c5nc(C)n(C(C)C)c5c4)n3)nc2)CC1 + Cc1nc(NC(=O)N2CCCC2C(N)=O)sc1-c1ccnc(C(C)(C)C(F)(F)F)c1
OUTPUT: 32.4

INPUT: Data request, read-out viability, T/C, for CC(Cn1ccc(-c2ccc(C#N)c(Cl)c2)n1)NC(=O)c1cc(C(C)O)[nH]n1 (stereo not given) + Cc1nc(NC(=O)N2CCCC2C(N)=O)sc1-c1ccnc(C(C)(C)C(F)(F)F)c1
OUTPUT: 82
